Attribution: PubChem BioAssay AID1963972

System: 945468-187-T-J2-PDC spheroids viability
PROTOCOL SUMMARY: Anticancer human tumor 945468-187-T-J2-PDC patient-derived rectal carcinoma cell line growth inhibition [PI3K]
COND: second compound 0.1 µM; first compound 0.01 µM; stronger effect = lower value; spheroids with HUVEC and MSC
PROPERTY: viability, T/C (%)
Answers are plain numbers, in %.

Some molecules with recorded viability, T/C:
• CCN1CCN(Cc2ccc(Nc3ncc(F)c(-c4cc(F)c5nc(C)n(C(C)C)c5c4)n3)nc2)CC1 + COc1c(OCCCN2CCOCC2)ccc2c3n(c(=NC(=O)c4cnc(N)nc4)nc12)CCN3 = 91.8
• CC(=O)c1c(C)c2cnc(Nc3ccc(N4CCNCC4)cn3)nc2n(C2CCCC2)c1=O + CC(Nc1ccc2c(c1)OCCn1cc(N3C(=O)OCC3C(F)F)nc1-2)C(N)=O = 101
• CC(C)n1nc(-c2ccc3oc(N)nc3c2)c2c(N)ncnc21 + COc1c(OCCCN2CCOCC2)ccc2c3n(c(=NC(=O)c4cnc(N)nc4)nc12)CCN3 = 75.6
• CC(C)n1nc(-c2ccc3oc(N)nc3c2)c2c(N)ncnc21 + CC(Nc1ccc2c(c1)OCCn1cc(N3C(=O)OCC3C(F)F)nc1-2)C(N)=O = 91.8
• CC(=O)c1c(C)c2cnc(Nc3ccc(N4CCNCC4)cn3)nc2n(C2CCCC2)c1=O + CC(Nc1ncnc2nc[nH]c12)c1cc2cccc(Cl)c2c(=O)n1-c1ccccc1 = 80.3

Read the next record carefully.
viability, T/C reported for this molecule CCN1CCN(Cc2ccc(Nc3ncc(F)c(-c4cc(F)c5nc(C)n(C(C)C)c5c4)n3)nc2)CC1 + CC(Nc1ncnc2nc[nH]c12)c1cc2cccc(Cl)c2c(=O)n1-c1ccccc1 : 122

###

Tested on: 945468-187-T-J2-PDC spheroids viability
PROTOCOL SUMMARY: Anticancer human tumor 945468-187-T-J2-PDC cell line growth inhibition [PI3K];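 further: spheroids exposed to compounds for seven days before reading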
COND: compound 0.316 µM; stronger effect = lower value; spheroids with HUVEC and MSC
PROPERTY: viability, T/C

Some compounds with recorded viability, T/C:
• C[C@@H](NC(=O)c1ncnc(N)c1Cl)c1ncc(C(=O)Nc2cc(C(F)(F)F)c(Cl)cn2)s1 = 107% [middle of 4 runs]
• CC(C)NCC(C(=O)N1CCN(c2ncnc3c2C(C)CC3O)CC1)c1ccc(Cl)cc1 (stereo not drawn) = 90.2% [middle of 4 runs]

Read the next record carefully.
viability, T/C reported for this compound CCCS(=O)(=O)Nc1ccc(F)c(C(=O)c2c[nH]c3ncc(-c4ccc(Cl)cc4)cc23)c1F : 94% [middle of 4 runs]

###

Test system: 945468-187-T-J2-PDC spheroids viability
PROTOCOL SUMMARY: Anticancer human tumor 945468-187-T-J2-PDC cell line growth inhibition [PI3K];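 further: spheroids exposed to compounds for seven days before reading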
COND: curve of first compound; second compound 10 µM; spheroids with HUVEC and MSC
Could you please report measured pIC50 for the items listed next?
Give bare numbers, as −log10 of the molar value.

* CC1(C)CCC(Nc2ncc(C(F)(F)F)c(-c3c[nH]c4c(P(C)(C)=O)c(C#N)ccc34)n2)CN1 (stereo not drawn) + Cc1nc(NC(=O)N2CCCC2C(N)=O)sc1-c1ccnc(C(C)(C)C(F)(F)F)c1 | 5.63

Read the next record carefully.
pIC50 reported for this compound CCN1CCN(Cc2ccc(Nc3ncc(F)c(-c4cc(F)c5nc(C)n(C(C)C)c5c4)n3)nc2)CC1 + Cc1nc(NC(=O)N2CCCC2C(N)=O)sc1-c1ccnc(C(C)(C)C(F)(F)F)c1 : 6.49

###

Could you please report measured viability, T/C for the items listed next?
Tested on: 945468-187-T-J2-PDC spheroids viability
PROTOCOL SUMMARY: Anticancer human tumor 945468-187-T-J2-PDC cell line growth inhibition [PI3K];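 further: spheroids exposed to compounds for seven days before reading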
COND: second compound 0.0316 µM; first compound 10 µM; stronger effect = lower value; spheroids with HUVEC and MSC
Excerpt: Combinatorial screen of targeted agents with the PI3K inhibitors inavolisib, alpelisib, duvelisib, and copanlisib in multi-cell type tumor spheroids A high-throughput screen of multi-cell type tumor spheroids was designed to identify active combinations of targeted small molecules and PI3K pathway inhibitors. […] Compounds. […] If the clinical Cmax for an agent had not been determined, the highest concentration tested was 10 microM. […]
Numbers only, in %.

- CNC(=O)c1ccc(N2C(=S)N(c3ccc(C#N)c(C(F)(F)F)c3)C(=O)C2(C)C)cc1F + CC(Nc1ccc2c(c1)OCCn1cc(N3C(=O)OCC3C(F)F)nc1-2)C(N)=O: 90.3
- C[C@@H](NC(=O)c1ncnc(N)c1Cl)c1ncc(C(=O)Nc2cc(C(F)(F)F)c(Cl)cn2)s1 + Cc1nc(NC(=O)N2CCCC2C(N)=O)sc1-c1ccnc(C(C)(C)C(F)(F)F)c1: 69.2
- C[C@@H](NC(=O)c1ncnc(N)c1Cl)c1ncc(C(=O)Nc2cc(C(F)(F)F)c(Cl)cn2)s1 + COc1c(OCCCN2CCOCC2)ccc2c3n(c(=NC(=O)c4cnc(N)nc4)nc12)CCN3: 122

Read the next record carefully.
viability, T/C reported for this compound CC1(C)CCC(CN2CCN(c3ccc(C(=O)NS(=O)(=O)c4ccc(NCC5CCOCC5)c([N+](=O)[O-])c4)c(Oc4cnc5[nH]ccc5c4)c3)CC2)=C(c2ccc(Cl)cc2)C1 + Cc1nc(NC(=O)N2CCCC2C(N)=O)sc1-c1ccnc(C(C)(C)C(F)(F)F)c1 : 61.4

###

Test system: 945468-187-T-J2-PDC spheroids viability
PROTOCOL SUMMARY: Anticancer human tumor 945468-187-T-J2-PDC cell line growth inhibition [PI3K];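 further: spheroids exposed to compounds for seven days before reading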
COND: second compound 0.1 µM; first compound 3.16 µM; stronger effect = lower value; spheroids with HUVEC and MSC
Mark t for viability, T/C under 90%, f if at or over.

These recorded examples may help you get a feel for the data.
• CCCS(=O)(=O)Nc1ccc(F)c(C(=O)c2c[nH]c3ncc(-c4ccc(Cl)cc4)cc23)c1F + COc1c(OCCCN2CCOCC2)ccc2c3n(c(=NC(=O)c4cnc(N)nc4)nc12)CCN3 = t
• CCCS(=O)(=O)Nc1ccc(F)c(C(=O)c2c[nH]c3ncc(-c4ccc(Cl)cc4)cc23)c1F + Cc1nc(NC(=O)N2CCCC2C(N)=O)sc1-c1ccnc(C(C)(C)C(F)(F)F)c1 = t
• Cn1nccc1Nc1nccc(-c2ccn(C(CO)c3ccc(Cl)c(F)c3)c(=O)c2)n1 (configuration not stated) + COc1c(OCCCN2CCOCC2)ccc2c3n(c(=NC(=O)c4cnc(N)nc4)nc12)CCN3 = t
• C=CC(=O)N1CCN(c2nc(=O)n(-c3c(C)ccnc3C(C)C)c3nc(-c4c(O)cccc4F)c(F)cc23)C(C)C1 (configuration not stated) + Cc1nc(NC(=O)N2CCCC2C(N)=O)sc1-c1ccnc(C(C)(C)C(F)(F)F)c1 = f
• CNC(=O)c1ccc(N2C(=S)N(c3ccc(C#N)c(C(F)(F)F)c3)C(=O)C2(C)C)cc1F + CC(Nc1ccc2c(c1)OCCn1cc(N3C(=O)OCC3C(F)F)nc1-2)C(N)=O = t

Q. I wonder whether C#Cc1c(F)ccc2cc(O)cc(-c3ncc4c(N5CC6CCC(C5)N6)nc(OCC56CCCN5CC(F)C6)nc4c3F)c12 (configuration not stated) + CC(Nc1ncnc2nc[nH]c12)c1cc2cccc(Cl)c2c(=O)n1-c1ccccc1 has viability, T/C below 90%. Can you tell?
A. f

Q. I wonder whether C=CC(=O)N1CCN(c2nc(=O)n(-c3c(C)ccnc3C(C)C)c3nc(-c4c(O)cccc4F)c(F)cc23)C(C)C1 (configuration not stated) + CC(Nc1ccc2c(c1)OCCn1cc(N3C(=O)OCC3C(F)F)nc1-2)C(N)=O has viability, T/C below 90%. Can you tell?
A. f

Q. I wonder whether C#Cc1c(F)ccc2cc(O)cc(-c3ncc4c(N5CC6CCC(C5)N6)nc(OCC56CCCN5CC(F)C6)nc4c3F)c12 (configuration not stated) + Cc1nc(NC(=O)N2CCCC2C(N)=O)sc1-c1ccnc(C(C)(C)C(F)(F)F)c1 has viability, T/C below 90%. Can you tell?
A. f

Q. I wonder whether CC1(C)CCC(Nc2ncc(C(F)(F)F)c(-c3c[nH]c4c(P(C)(C)=O)c(C#N)ccc34)n2)CN1 (configuration not stated) + CC(Nc1ccc2c(c1)OCCn1cc(N3C(=O)OCC3C(F)F)nc1-2)C(N)=O has viability, T/C below 90%. Can you tell?
A. t

###

System: 945468-187-T-J2-PDC spheroids viability
PROTOCOL SUMMARY: Anticancer human tumor 945468-187-T-J2-PDC cell line growth inhibition [PI3K];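 further: spheroids exposed to compounds for seven days before reading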
COND: curve of first compound; second compound 0.1 µM; spheroids with HUVEC and MSC
Description: Combinatorial screen of targeted agents with the PI3K inhibitors inavolisib, alpelisib, duvelisib, and copanlisib in multi-cell type tumor spheroids A high-throughput screen of multi-cell type tumor spheroids was designed to identify active combinations of targeted small molecules and PI3K pathway inhibitors. […] Compounds. […] If the clinical Cmax for an agent had not been determined, the highest concentration tested was 10 microM. […]
Could you please report measured IC50 for the items listed next?

Some compounds with recorded IC50:
- CCCS(=O)(=O)Nc1ccc(F)c(C(=O)c2c[nH]c3ncc(-c4ccc(Cl)cc4)cc23)c1F + CC(Nc1ccc2c(c1)OCCn1cc(N3C(=O)OCC3C(F)F)nc1-2)C(N)=O: 6.98 µM
- C[C@@H](NC(=O)c1ncnc(N)c1Cl)c1ncc(C(=O)Nc2cc(C(F)(F)F)c(Cl)cn2)s1 + Cc1nc(NC(=O)N2CCCC2C(N)=O)sc1-c1ccnc(C(C)(C)C(F)(F)F)c1: > 10 µM
- C=CC(=O)N1CCN(c2nc(=O)n(-c3c(C)ccnc3C(C)C)c3nc(-c4c(O)cccc4F)c(F)cc23)C(C)C1 (stereo not given) + CC(Nc1ccc2c(c1)OCCn1cc(N3C(=O)OCC3C(F)F)nc1-2)C(N)=O: > 10 µM
- C[C@@H](NC(=O)c1ncnc(N)c1Cl)c1ncc(C(=O)Nc2cc(C(F)(F)F)c(Cl)cn2)s1 + COc1c(OCCCN2CCOCC2)ccc2c3n(c(=NC(=O)c4cnc(N)nc4)nc12)CCN3: > 10 µM
- CC1(C)CCC(Nc2ncc(C(F)(F)F)c(-c3c[nH]c4c(P(C)(C)=O)c(C#N)ccc34)n2)CN1 (stereo not given) + COc1c(OCCCN2CCOCC2)ccc2c3n(c(=NC(=O)c4cnc(N)nc4)nc12)CCN3: 0.663 µM
- C=CC(=O)N1CCN(c2nc(=O)n(-c3c(C)ccnc3C(C)C)c3nc(-c4c(O)cccc4F)c(F)cc23)C(C)C1 (stereo not given) + CC(Nc1ncnc2nc[nH]c12)c1cc2cccc(Cl)c2c(=O)n1-c1ccccc1: > 10 µM

Would you be so kind as to report IC50 for each listed record?
1. CC(=O)c1c(C)c2cnc(Nc3ccc(N4CCNCC4)cn3)nc2n(C2CCCC2)c1=O + Cc1nc(NC(=O)N2CCCC2C(N)=O)sc1-c1ccnc(C(C)(C)C(F)(F)F)c1
2. Cn1ncnc1[C@H]1c2n[nH]c(=O)c3cc(F)cc(c23)N[C@@H]1c1ccc(F)cc1 + Cc1nc(NC(=O)N2CCCC2C(N)=O)sc1-c1ccnc(C(C)(C)C(F)(F)F)c1
3. CC(=O)c1c(C)c2cnc(Nc3ccc(N4CCNCC4)cn3)nc2n(C2CCCC2)c1=O + CC(Nc1ncnc2nc[nH]c12)c1cc2cccc(Cl)c2c(=O)n1-c1ccccc1
4. CNC(=O)c1ccc(N2C(=S)N(c3ccc(C#N)c(C(F)(F)F)c3)C(=O)C2(C)C)cc1F + Cc1nc(NC(=O)N2CCCC2C(N)=O)sc1-c1ccnc(C(C)(C)C(F)(F)F)c1
5. Cn1nccc1Nc1nccc(-c2ccn(C(CO)c3ccc(Cl)c(F)c3)c(=O)c2)n1 (stereo not given) + CC(Nc1ncnc2nc[nH]c12)c1cc2cccc(Cl)c2c(=O)n1-c1ccccc1
6. CC1(C)CCC(Nc2ncc(C(F)(F)F)c(-c3c[nH]c4c(P(C)(C)=O)c(C#N)ccc34)n2)CN1 (stereo not given) + CC(Nc1ncnc2nc[nH]c12)c1cc2cccc(Cl)c2c(=O)n1-c1ccccc1

A.
> 0.1 µM
> 0.1 µM
> 0.1 µM
> 10 µM
> 10 µM
0.605 µM

Would you be so kind as to report IC50 for each listed record?
1. CC(Cn1ccc(-c2ccc(C#N)c(Cl)c2)n1)NC(=O)c1cc(C(C)O)[nH]n1 (stereo not given) + COc1c(OCCCN2CCOCC2)ccc2c3n(c(=NC(=O)c4cnc(N)nc4)nc12)CCN3
2. Cn1nccc1Nc1nccc(-c2ccn(C(CO)c3ccc(Cl)c(F)c3)c(=O)c2)n1 (stereo not given) + COc1c(OCCCN2CCOCC2)ccc2c3n(c(=NC(=O)c4cnc(N)nc4)nc12)CCN3
3. Cn1nccc1Nc1nccc(-c2ccn(C(CO)c3ccc(Cl)c(F)c3)c(=O)c2)n1 (stereo not given) + CC(Nc1ccc2c(c1)OCCn1cc(N3C(=O)OCC3C(F)F)nc1-2)C(N)=O

A.
1. > 10 µM
2. > 10 µM
3. > 10 µM
